molecular target: EPHB2 (UniProt P29323); assay: phosphorylation enrichment, bacterial display (enrichment ratio); higher = better substrate or ligand; peptides without Tyr show the background;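 note: 11-residue human phosphosite peptides and single-mutation variants displayed on the E. coli surface, counted by deep sequencing, each peptide's frequency after selection divided by its frequency in the unselected input library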;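 note: frequency after pTyr selection over input frequency; kinase dosed for 20-30% of maximal phosphorylation in three min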
Sequence (P29323 whole entry, looked up): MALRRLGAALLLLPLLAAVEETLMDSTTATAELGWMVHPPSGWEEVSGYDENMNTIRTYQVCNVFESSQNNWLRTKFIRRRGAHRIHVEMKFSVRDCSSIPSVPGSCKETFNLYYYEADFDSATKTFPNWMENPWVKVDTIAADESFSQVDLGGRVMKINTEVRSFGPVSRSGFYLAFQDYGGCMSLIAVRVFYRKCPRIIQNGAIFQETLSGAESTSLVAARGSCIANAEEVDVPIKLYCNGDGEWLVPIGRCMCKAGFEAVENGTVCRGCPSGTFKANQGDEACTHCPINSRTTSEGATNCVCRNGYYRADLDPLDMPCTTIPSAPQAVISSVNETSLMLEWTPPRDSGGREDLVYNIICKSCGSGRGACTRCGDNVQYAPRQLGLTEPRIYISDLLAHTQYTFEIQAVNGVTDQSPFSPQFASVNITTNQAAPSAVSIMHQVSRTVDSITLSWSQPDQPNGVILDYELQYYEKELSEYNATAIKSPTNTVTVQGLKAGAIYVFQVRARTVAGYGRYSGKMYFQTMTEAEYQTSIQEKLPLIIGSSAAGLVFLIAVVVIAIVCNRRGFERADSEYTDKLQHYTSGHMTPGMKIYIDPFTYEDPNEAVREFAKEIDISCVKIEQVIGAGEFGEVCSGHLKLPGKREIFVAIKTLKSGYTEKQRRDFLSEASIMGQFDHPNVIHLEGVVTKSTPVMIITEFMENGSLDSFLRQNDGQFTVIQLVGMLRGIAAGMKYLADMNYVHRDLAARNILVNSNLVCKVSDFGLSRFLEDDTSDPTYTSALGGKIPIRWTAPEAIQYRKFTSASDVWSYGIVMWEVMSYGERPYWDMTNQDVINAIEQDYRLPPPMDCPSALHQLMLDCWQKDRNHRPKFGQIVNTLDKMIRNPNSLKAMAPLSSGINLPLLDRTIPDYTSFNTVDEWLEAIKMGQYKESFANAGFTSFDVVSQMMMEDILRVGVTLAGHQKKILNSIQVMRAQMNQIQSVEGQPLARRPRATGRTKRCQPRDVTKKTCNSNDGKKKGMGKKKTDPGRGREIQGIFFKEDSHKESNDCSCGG
measurementLabel: phosphorylation enrichment
One number for each entry.

>  <orderedResidues>
IGEVVYQWAVM [GRIN2A_Y502_R504W]

>  <measurementLabel>
phosphorylation enrichment

>  <valueMeasured>
0.598

$$$$

Kindly give each listed record's phosphorylation enrichment.
1. DDEENYENVPR [FCRL3_Y722]
2. GKSDPYHATTG [GJA1_Y247_S251T]
3. YEREQYADRTR [RBM4_Y355_A359T]
4. FRIGPYQPNVP [MATR3_Y784_YF]
5. TRDVNYGWVIR [MT-CYB_Y75_I78V]
6. EQLRAYLEGLC [HLA-C_Y183_T187L]
7. HHIDYYKKTTN [FGFR1_Y654]
8. YSNVLYRPRGA [TMIGD2_Y197]

1. 0.572
2. 0.254
3. 0.419
4. 0.514
5. 1.27
6. 0.673
7. 0.721
8. 0.6
